- assayNotes: Next Generation Impactor (NGI) testing of pMDI prototype formulations
- Type: physicochemical
- runConditions: Formulation 4
Reported % Emitted dose by item:
Answer format: numeric, % implied, no suffix.

# compound, % Emitted dose / %
records = [
    ("CCCCCc1cc(O)c(C/C=C(\\C)CCC=C(C)C)c(O)c1", 106),
    ("CCCCCc1cc(O)c2c(c1)OC(C)(C)c1ccc(C)cc1-2", 95),
    ("C[N+]1(C)CCC(OC(=O)C(O)(c2ccccc2)C2CCCC2)C1 (stereo not drawn) [Glycopyrronium, glycopyrronium, reference compound]", 104),
    ("C=C(C)[C@@H]1CCC(C)=C[C@H]1c1c(O)cc(CCCCC)cc1O [CBD, cannabidiol, reference compound]", 96),
    ("CCCCCc1cc(O)c2c(c1)OC(C)(CCC=C(C)C)C=C2 (stereo not drawn)", 105),
]

# context switch: different compound, same % Emitted dose
Asked: What measured % Emitted dose goes with C=C(C)[C@@H]1CCC(C)=C[C@H]1c1c(O)cc(CCC)cc1O ?
Given back: 98
